ATTRIBUTE MEASURED: melting point (°C)
Answers are plain numbers, in °C.

# example entries with known answers
CC(Nc1cc(F)cc(F)c1)c1cc(CN2CCn3nccc3C2)cc2ncc(N3CCOCC3)nc12 (single isomer, unassigned) [Compound 210] : 80
CN(CCO)C(=O)c1cc(C2CCCN2c2cc(F)cc(F)c2)c2nc(N3CCOCC3)cnc2c1 (stereo not shown) : 80
Cc1cc(F)cc(N2CCCC2c2cc(C(=O)N(C)C)cc3ncc(N4CCOCC4)nc23)c1 (stereo not shown) : 80

Turning now to a further record.
Answer with the recorded melting point for the compound listed here: CNCCNC(=O)c1cc(C(C)Nc2cccc(F)c2)c2nc(N3CCOCC3)cnc2c1 (stereo not shown)
100
